Values from PubChem BioAssay (NCI)

Tested on: CCRF-CEM leukemia
PROTOCOL DESCRIPTION: NCI tumour cell line growth inhibition, 48 h; in the data active = GI50 below about 0.43 µM; inactive = the rest
Response enum: active, inactive

Check out these entries, answers already filled in.
{"columns": ["COMPOUND", "CLASS NAME"],
 "data": [
  ["Nc1c(C(=O)c2cccc(OCCN3CCOCC3)c2)cnn1-c1ccc(F)cc1", "inactive"],
  ["CC[N+](CC)=c1ccc2nc3c(cc(NCc4ccccc4)c4ccccc43)oc-2c1", "inactive"],
  ["CN(C)c1ccc(/C=C/c2sc3ccc4ccccc4c3[n+]2C)cc1", "active"]
]}

Request: Look up the recorded call for CS(=O)(=O)N1CCN(Cc2cc3nc(-c4cccc5[nH]ncc45)nc(N4CCOCC4)c3s2)CC1 (tested in a mixture with another compound) in this test.
Result: active

Request: // repeat for CC(CN)[C@@H]1CC[C@]2(CO)CC[C@]3(C)[C@H](CC[C@@H]4[C@@]5(C)CCC(NCCO)C(C)(C)[C@@H]5CC[C@]43C)[C@@H]12 (stereo partly specified) and report
Result: inactive

Request: // repeat for C/C=C(\C)C(=O)O[C@@H]1C(O)[C@H]2OC(COC(=O)CCC(=O)CCCCCC[C@H](CCCCC)O[C@@H]3OC(C)[C@H](OC(C)=O)C(O)[C@H]3O2)[C@H]1OC(=O)/C=C/c1ccccc1 (stereo partly specified) and report
Result: active

====

Assignment: determine reported TGI for the given compounds.
Test system: OVCAR-3 ovarian
PROTOCOL DESCRIPTION: NCI tumour cell line growth inhibition, 48 h
Numbers only, in µM.

{"columns": ["COMPOUND", "TARGET DESC", "TGI [µM]"],
 "data": [
  ["C=C(CN(CC(=C)C(=O)c1ccccc1)C(C)(C)C)C(=O)c1ccccc1", "OVCAR-3 ovarian", 37.5]
]}

Each compound below has a recorded value; state its TGI.
1. COc1cc2c3c(n(CCCN)c(=O)c2cc1OC)-c1ccc(F)cc1C3=O
2. COc1cc2c3c(n(CCCN4CCN(C)CC4)c(=O)c2cc1OC)-c1cc2c(cc1C3=O)OCO2
3. CS(=O)(=O)N1CCN(Cc2cc3nc(-c4cccc5[nH]ncc45)nc(N4CCOCC4)c3s2)CC1 (tested in a mixture with another compound)
4. COc1ccc(-c2cnc(-c3ccc(F)cc3)[nH]2)cc1
5. CC(SC(=S)N1CCCCC1)C(=O)Nc1nnc(-c2ccc(Cl)cc2)o1 (centres undefined)
6. CC1=C(C(=O)OCCO[N+](=O)[O-])C(c2ccccc2C(F)(F)F)C(C(=O)OC(C)C)=C(C)N1 (centres undefined)

Result:
1. 17.4
2. 30.1
3. 0.586
4. 3.65
5. 64.2
6. 29.2

====

Tested on: SK-MEL-28 melanoma
PROTOCOL DESCRIPTION: NCI tumour cell line growth inhibition, 48 h; in the data active means GI50 below about 0.43 µM; inactive means the rest
Response enum: active, inactive

{"columns": ["MOLECULE", "CLASS NAME"],
 "data": [
  ["C=C(CN1CCN(c2cccc(C(F)(F)F)c2)CC1)c1ccc(C(=O)Nc2ccccc2N)cc1", "inactive"],
  ["O=C1/C(=C/c2ccccc2)SC(=Nc2ccccc2)N1Nc1ccccc1", "inactive"],
  ["COc1cc(/C=C/C(=O)c2cc(F)c(Cl)cc2Cl)cc(OC)c1OC", "inactive"],
  ["COc1ccc(/C=C(/C(=O)N2CCCC2)c2cc(OC)c(OC)c(OC)c2)cc1N", "inactive"]
]}

Request: Look up the recorded call for CN(C)CCNC(=O)c1cccc2cc3ccccc3nc12 in this test.
Result: inactive

Request: // repeat for COC(=O)c1ccc(=O)c2nc3/c(=C/O)c(O)cc(=O)c3[nH]c12 and report
Result: inactive

Request: // repeat for O=C(Oc1ccc([N+](=O)[O-])cc1)N1CCN(Cc2cccc(Oc3ccccc3)c2)CC1 and report
Result: inactive

Request: // repeat for COc1cccc(/C=C/C(=O)c2ccc(Cl)cc2Cl)c1OC and report
Result: inactive

Request: // repeat for C=C1C(=O)O[C@H]2[C@H]1CC/C(COC(=O)C(=O)c1c[nH]c3ccc(OC)cc13)=C\CC[C@@]1(C)O[C@@H]21 and report
Result: inactive
